Can you tell me solubility kinetic for the items I'm about to list?
experiment: Solubility in PBS at pH 7.4 assessed as maximum soluble concentration at 25 degC by nephelometry; assay type: physicochemical

Required: solubility kinetic, one value per compound below.
1. COc1cc(/C=C2\SC(=O)NC2=O)cc(OC)c1OCC(=O)Nc1cccc(Cl)c1
2. O=C(COc1ccc(/C=C2\SC(=O)NC2=O)cc1)Nc1cccc(Cl)c1

1. < 500 µg/mL
2. < 500 µg/mL

###

assay: Tmax in Sprague-Dawley rat at 20 mg/kg, po; format: ADME, organism-based; set-up: dose 20 mg/kg, route oral; settings: in vivo
Reported Endpoint: Tmax (h)
Give bare numbers, in h.

Tmax for `COc1cc(/C=C2\SC(=O)NC2=O)cc(OC)c1OCC(=O)Nc1cccc(Cl)c1` ? 2.27

###

assay: Tmax in Sprague-Dawley rat at 5 mg/kg; format: ADME, organism-based; parameters: dose 5 mg/kg; settings: in vivo
Reported Endpoint: Tmax (min)
Numbers only, in min.

Tmax for `COc1cc(/C=C2\SC(=O)NC2=O)cc(OC)c1OCC(=O)Nc1cccc(Cl)c1` ? 4.2

###

Can you tell me solubility kinetic for the items I'm about to list?
experiment: Solubility in EtOH assessed as maximum soluble concentration at 25 degC by nephelometry; type: physicochemical; details: ethanol
State the result as a value with its unit after it.

>>> measured("COc1cc(/C=C2\\SC(=O)NC2=O)cc(OC)c1OCC(=O)Nc1cccc(Cl)c1")
"3100 µg/mL"

// next entry
solubility kinetic for `O=C(COc1ccc(/C=C2\SC(=O)NC2=O)cc1)Nc1cccc(Cl)c1` ? 1500 µg/mL

###

assay: Cmax in Sprague-Dawley rat at 5 mg/kg; format: ADME, organism-based; set-up: dose 5 mg/kg; conditions: in vivo
Reported Endpoint: Cmax (ng/mL)
Give bare numbers, in ng/mL.

Cmax for `COc1cc(/C=C2\SC(=O)NC2=O)cc(OC)c1OCC(=O)Nc1cccc(Cl)c1` ? 332

###

experiment: AUC (0 to t) in Sprague-Dawley rat at 5 mg/kg; format: ADME, organism-based; design: dose 5 mg/kg; settings: plasma
Reported Endpoint: AUC(0-t) (ng·h/mL)
Give bare numbers, in ng·h/mL.

AUC(0-t) for `COc1cc(/C=C2\SC(=O)NC2=O)cc(OC)c1OCC(=O)Nc1cccc(Cl)c1` ? 387

###

assay: Oral bioavailability in Sprague-Dawley rat at 20 mg/kg; type: ADME, organism-based; details: in vivo
Reported Endpoint: bioavailability (%)
Give bare numbers, in %.

bioavailability for `COc1cc(/C=C2\SC(=O)NC2=O)cc(OC)c1OCC(=O)Nc1cccc(Cl)c1` ? 27.2

###

Can you tell me IC50 for the items I'm about to list?
Target: Nitric oxide synthase, inducible (Mus musculus)
Sequence (P29477 whole entry): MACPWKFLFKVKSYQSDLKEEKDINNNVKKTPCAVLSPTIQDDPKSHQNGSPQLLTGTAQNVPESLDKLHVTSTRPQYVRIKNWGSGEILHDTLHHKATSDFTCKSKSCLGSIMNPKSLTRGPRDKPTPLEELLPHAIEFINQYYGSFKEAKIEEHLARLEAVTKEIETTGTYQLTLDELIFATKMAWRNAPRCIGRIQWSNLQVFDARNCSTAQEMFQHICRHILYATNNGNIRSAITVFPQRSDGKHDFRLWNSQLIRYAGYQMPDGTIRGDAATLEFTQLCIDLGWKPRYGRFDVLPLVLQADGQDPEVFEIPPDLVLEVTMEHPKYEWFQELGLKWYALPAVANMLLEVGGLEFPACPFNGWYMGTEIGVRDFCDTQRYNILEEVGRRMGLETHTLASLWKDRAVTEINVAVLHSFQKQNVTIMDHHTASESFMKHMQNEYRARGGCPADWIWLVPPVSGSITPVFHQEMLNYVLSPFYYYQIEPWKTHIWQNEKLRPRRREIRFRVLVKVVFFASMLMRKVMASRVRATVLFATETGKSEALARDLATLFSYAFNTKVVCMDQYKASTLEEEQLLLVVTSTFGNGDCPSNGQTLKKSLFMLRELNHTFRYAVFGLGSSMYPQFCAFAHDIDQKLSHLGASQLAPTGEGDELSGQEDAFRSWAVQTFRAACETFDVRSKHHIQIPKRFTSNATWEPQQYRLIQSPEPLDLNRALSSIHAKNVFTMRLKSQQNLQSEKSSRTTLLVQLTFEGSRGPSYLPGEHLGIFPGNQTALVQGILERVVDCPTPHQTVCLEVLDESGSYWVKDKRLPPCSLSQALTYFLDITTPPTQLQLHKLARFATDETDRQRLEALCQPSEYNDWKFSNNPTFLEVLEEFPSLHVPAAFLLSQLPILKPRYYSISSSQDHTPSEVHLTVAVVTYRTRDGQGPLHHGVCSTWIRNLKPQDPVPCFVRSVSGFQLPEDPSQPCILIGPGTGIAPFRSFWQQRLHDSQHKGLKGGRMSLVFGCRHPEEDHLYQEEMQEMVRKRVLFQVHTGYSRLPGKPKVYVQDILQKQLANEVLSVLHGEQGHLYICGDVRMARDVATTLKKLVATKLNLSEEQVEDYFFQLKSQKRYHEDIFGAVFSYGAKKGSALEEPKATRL
Assay: Inhibition of iNOS-induced nitric oxide production in LPS-stimulated mouse RAW264.7 cells pre-incubated for 2 hrs before LPS challenge by fluorescence assay
Give bare numbers, in µM.

>>> measured("O=C(COc1ccc(/C=C2\\NC(=O)N(Cc3ccccc3)C2=O)cc1)Nc1cccc(Cl)c1")
43.2
>>> measured("COc1cc(/C=C2\\SC(=O)NC2=O)cc(OC)c1OCC(=O)Nc1cccc(Cl)c1")
25.2
>>> measured("O=C(O)CN1C(=O)/C(=C/c2ccc(OCC(=O)Nc3cccc(Cl)c3)cc2)SC1=S")
47.8

API: value(readout=IC50, system=Nitric oxide synthase, inducible (Mus musculus)) for record CC(CN(C)C)CN1C(=O)S/C(=C\c2ccc(OCC(=O)Nc3cccc(Cl)c3)cc2)C1=O (centres undefined) 32.1
